assay: yeast display, Sf9 membrane polyspecificity reagent, FACS + sequencing; frameworks hold sequencing errors
readout: polyreactivity (PSR sort gate)

{"columns": ["residue string", "readout", "result"],
 "data": [
  ["QVQLVESGGGLVQAGGSLRLSCAASGSTFVRYVMGWYRQAPGKERELVAAISRRGGSTYYADSVKGRFTISRDNAKNTVYLQMNSLKPEDTAVYYCAARGTSRKYYYWGQGTQVTVSS", "polyreactivity (PSR sort gate)", "high polyreactivity"],
  ["QVQLVESGGGLVQAGGSLRISCAASGRTFYTYDMGWYRQAPGKERQLVAAISSSGSTYYADSVKGRFTISRDNAKNTVYLQMNSLKPEDTAGYYCNARTSRYRRGGDSWGQGTQVTVSS", "polyreactivity (PSR sort gate)", "high polyreactivity"],
  ["QVQLVESGGGLVQAGGSLRLSCAASGRIFSENAMGWYRQAPGKERELVAAISVSGGSTYYADSVKGRFTISRDNAKNTVYLQMNSLKPEDTAVYYCAAEYLAYYSGYDYWGQGTQVTVSS", "polyreactivity (PSR sort gate)", "high polyreactivity"],
  ["QVQLLESGGGLVQAGGSLRLSCAASGIIVSYAMGWYRQAPGKERELVAAIRYSGDSTYYADSVKGRFTISRDNAKNTVYLQMNSLKPEDTAVYYCAATKGWSRYEYWGQGTQVTVSS", "polyreactivity (PSR sort gate)", "low polyreactivity"],
  ["QVQLVESWGGLVQAGGSLRLSCAASGYTIPDNAMGWYRQAPGKEREWVATITSGASTYYADSVKGRFTSSRDNAKNTVYLQMNSLNPEDTAVYYFARDPWALGGIGSDQKYDYWGQGTQVTVSS", "polyreactivity (PSR sort gate)", "low polyreactivity"],
  ["QVQLVESGGGLVQAGGSLRLSCAASGRIFAFYAMGWYRQAPGKVREFVAAITKSGGSTYYADSVKGRFTISRDNAKNTVYLQMNSLKPEDTAVYYCAADYWYPTTYYLYDYWGQGTQVTVSS", "polyreactivity (PSR sort gate)", "low polyreactivity"]
]}

Value source: the nanobody polyreactivity screen of Harvey et al. (2022)
